Reference for the values: patent US4479951A

Test system: isolated rat aorta preparations
Experiment: spasmolytic effectiveness, noradrenaline-induced contractions
Conditions: read-out: ED50 noradrenaline spasm
Parameter: pIC50. Scope: all listed entries.
// field semantics: pIC50 = negative decimal log of concentration (mol/L)

Observe how each entry below is paired with its result.
# Molecule, Tested on, Quantitative result
rows = [
    ("CN(C)c1ncnc2c1ncn2[C@H]1CO[C@H]2[C@@H]1OC[C@@H]2O[N+](=O)[O-] [Example 4b]", "isolated rat aorta preparations", 6.66),
    ("O=[N+]([O-])O[C@H]1CO[C@H]2[C@@H]1OC[C@@H]2n1cnc2c(N3CCOCC3)ncnc21 [Example 8b]", "isolated rat aorta preparations", 6.54),
    ("CN1CCN(c2ncnc3c2ncn3[C@H]2CO[C@H]3[C@@H]2OC[C@@H]3O[N+](=O)[O-])CC1 [Example 9b]", "isolated rat aorta preparations", 5.58),
    ("O=[N+]([O-])O[C@H]1CO[C@H]2[C@@H]1OC[C@@H]2n1cnc2c(NCc3ccccc3)ncnc21 [Example 13b]", "isolated rat aorta preparations", 7.77),
    ("Cn1c(=O)c2c(ncn2[C@H]2CO[C@H]3[C@@H]2OC[C@@H]3O[N+](=O)[O-])n(C)c1=O [Example 12b]", "isolated rat aorta preparations", 5.49),
    ("Nc1ncnc2c1ncn2[C@H]1CO[C@H]2[C@@H]1OC[C@@H]2O[N+](=O)[O-] [1c/2c]", "isolated rat aorta preparations", 6.87),
    ("CNc1ncnc2c1ncn2[C@H]1CO[C@H]2[C@@H]1OC[C@@H]2O[N+](=O)[O-] [Example 3c]", "isolated rat aorta preparations", 6.32),
    ("CC(C)(C)C(=O)Nc1ncnc2c1ncn2[C@H]1CO[C@H]2[C@@H]1OC[C@@H]2O[N+](=O)[O-] [Example 10]", "isolated rat aorta preparations", 6.52),
    ("O=[N+]([O-])O[C@H]1CO[C@H]2[C@@H]1OC[C@@H]2n1cnc2c(N3CCCCC3)ncnc21 [Example 7b]", "isolated rat aorta preparations", 6.62),
    ("O=[N+]([O-])O[C@H]1CO[C@H]2[C@@H]1OC[C@@H]2n1cnc2c(N3CCCC3)ncnc21 [Example 6b]", "isolated rat aorta preparations", 6.27),
]

Please look at the following molecule next.
Enquiry: Would you kindly share the measured pIC50 for CCNc1ncnc2c1ncn2[C@H]1CO[C@H]2[C@@H]1OC[C@@H]2O[N+](=O)[O-] [Example 5b] ?
Return: 6.42

----------
System: guinea pigs
Test: blood pressure-lowering effectiveness on narcotised guinea pigs, intravenous
Format: in vivo, guinea pig
Conditions: 0.25 mg/kg i.v.
Parameter: blood pressure afterwards. Scope: all listed entries.
Note: unit mm. Hg is implicit; provide only the numeric part.

Observe how each entry below is paired with its result.
# Structure, Tested on, blood pressure afterwards / mm. Hg
records = [
    ("CN1CCN(c2ncnc3c2ncn3[C@H]2CO[C@H]3[C@@H]2OC[C@@H]3O[N+](=O)[O-])CC1", "guinea pigs", 70.25),
    ("Nc1ncnc2c1ncn2[C@H]1CO[C@H]2[C@@H]1OC[C@@H]2O[N+](=O)[O-]", "guinea pigs", 50.50),
]

Enquiry: Would you kindly share the measured blood pressure afterwards for `CNc1ncnc2c1ncn2[C@H]1CO[C@H]2[C@@H]1OC[C@@H]2O[N+](=O)[O-]` ?
Return: 79.25
